target: Death-associated protein kinase 1 (Homo sapiens) (UniProt P53355); conditions: at 10 µM
Sequence (P53355 whole entry, looked up): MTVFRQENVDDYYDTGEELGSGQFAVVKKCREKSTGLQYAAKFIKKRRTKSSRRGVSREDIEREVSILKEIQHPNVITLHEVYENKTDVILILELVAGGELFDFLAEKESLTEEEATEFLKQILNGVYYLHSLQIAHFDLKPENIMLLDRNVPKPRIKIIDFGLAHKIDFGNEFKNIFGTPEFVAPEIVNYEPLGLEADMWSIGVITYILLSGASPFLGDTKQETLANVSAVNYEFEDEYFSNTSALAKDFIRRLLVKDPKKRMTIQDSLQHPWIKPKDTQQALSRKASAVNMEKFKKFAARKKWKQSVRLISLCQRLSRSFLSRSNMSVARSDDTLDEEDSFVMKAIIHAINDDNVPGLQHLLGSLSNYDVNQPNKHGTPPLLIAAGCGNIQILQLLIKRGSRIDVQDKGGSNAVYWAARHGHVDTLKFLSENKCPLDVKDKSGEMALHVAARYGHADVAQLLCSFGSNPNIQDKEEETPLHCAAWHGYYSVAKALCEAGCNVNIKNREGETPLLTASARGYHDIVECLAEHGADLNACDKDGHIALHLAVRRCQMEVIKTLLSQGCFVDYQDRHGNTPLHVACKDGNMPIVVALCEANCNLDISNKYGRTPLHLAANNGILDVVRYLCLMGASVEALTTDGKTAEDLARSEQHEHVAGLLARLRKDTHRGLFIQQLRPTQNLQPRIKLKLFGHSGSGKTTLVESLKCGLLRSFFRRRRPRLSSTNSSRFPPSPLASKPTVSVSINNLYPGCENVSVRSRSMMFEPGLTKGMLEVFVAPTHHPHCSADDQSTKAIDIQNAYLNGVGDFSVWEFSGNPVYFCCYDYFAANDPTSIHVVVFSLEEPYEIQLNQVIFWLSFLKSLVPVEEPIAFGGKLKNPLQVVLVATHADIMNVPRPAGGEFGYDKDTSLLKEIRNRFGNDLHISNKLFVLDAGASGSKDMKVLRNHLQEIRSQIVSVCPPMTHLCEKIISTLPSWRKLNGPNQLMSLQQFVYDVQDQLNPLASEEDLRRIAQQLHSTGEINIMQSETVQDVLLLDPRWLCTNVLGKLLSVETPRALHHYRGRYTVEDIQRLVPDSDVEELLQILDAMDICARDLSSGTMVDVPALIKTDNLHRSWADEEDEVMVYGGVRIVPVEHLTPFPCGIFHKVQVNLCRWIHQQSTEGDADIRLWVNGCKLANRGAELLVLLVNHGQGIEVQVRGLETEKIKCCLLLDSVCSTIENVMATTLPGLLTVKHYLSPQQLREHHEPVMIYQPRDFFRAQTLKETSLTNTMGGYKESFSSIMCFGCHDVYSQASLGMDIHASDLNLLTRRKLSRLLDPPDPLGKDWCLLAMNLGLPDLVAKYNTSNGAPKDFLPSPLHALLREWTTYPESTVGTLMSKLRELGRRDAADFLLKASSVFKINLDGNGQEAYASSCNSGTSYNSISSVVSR
Binary call on residual activity with cut-off 80%: strictly below means yes, and equality or higher means no.

{"columns": ["smiles_string", "category_label"],
 "data": [
  ["COc1ccc2c(c1)c(C1=C(c3c[nH]c4ccccc34)C(=O)NC1=O)cn2CCCN(C)C", "yes"],
  ["CC(C)N(CCC(=O)c1ccc2ccccc2c1)Cc1ccccc1", "yes"],
  ["COc1cc2nccc(Oc3ccc(NC(=S)NC(=O)c4ccccc4C)cc3)c2cc1OC", "yes"],
  ["COc1ccc(Cl)cc1NC(=O)Nc1cc(C)nc2ccccc12", "yes"],
  ["O=C1C(Cl)=C(N2C(=O)CCC2=O)C(=O)c2ccccc21", "no"],
  ["CC(C)(C)c1nc2c3ccc(F)cc3c3c(=O)[nH]ccc3c2[nH]1", "yes"],
  ["CCOC(=O)c1c(C)[nH]c(/C=C2\\C(=O)Nc3ccccc32)c1C", "no"],
  ["Nc1ncnc2c1cnn2-c1ccccc1", "no"],
  ["O=C(Nc1nc2ccccc2n1CCN1CCOCC1)c1cccc([N+](=O)[O-])c1", "yes"],
  ["O=C(c1ccccc1)c1ccc(N2CCOCC2)cc1O", "no"],
  ["COc1cc2nccc(Oc3ccc(NC(=O)Nc4cc(C)on4)c(Cl)c3)c2cc1OC", "yes"],
  ["O=C1NC(=O)C(c2cn(CCCO)c3ncccc23)=C1c1cnccn1", "no"],
  ["CC(C)c1nn(-c2c(Cl)cccc2Cl)c2nc(Cc3ccc(OCCO)cc3)[nH]c(=O)c12", "no"]
]}

----------
biological target: Serine/threonine-protein kinase 33 (Homo sapiens) (UniProt Q9BYT3); details: at 10 µM
Sequence (Q9BYT3 whole entry, looked up): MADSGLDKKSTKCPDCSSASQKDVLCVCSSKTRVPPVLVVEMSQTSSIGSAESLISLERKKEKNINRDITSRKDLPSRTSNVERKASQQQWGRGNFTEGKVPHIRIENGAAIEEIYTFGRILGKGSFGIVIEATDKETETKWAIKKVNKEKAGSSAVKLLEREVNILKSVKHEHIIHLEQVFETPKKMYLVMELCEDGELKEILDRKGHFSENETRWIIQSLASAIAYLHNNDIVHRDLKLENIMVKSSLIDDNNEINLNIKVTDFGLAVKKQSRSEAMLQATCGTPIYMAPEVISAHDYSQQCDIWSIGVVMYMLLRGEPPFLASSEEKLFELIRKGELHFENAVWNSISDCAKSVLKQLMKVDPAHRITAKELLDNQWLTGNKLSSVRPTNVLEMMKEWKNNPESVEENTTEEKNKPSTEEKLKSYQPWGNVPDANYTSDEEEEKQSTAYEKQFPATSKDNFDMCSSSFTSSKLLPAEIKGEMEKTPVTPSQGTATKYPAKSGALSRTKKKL
Would you mind labelling by residual activity? At or over 90% is MET, under is NOT MET.

{"columns": ["smiles_string", "category_label"],
 "data": [
  ["CC(C)c1nn(-c2c(Cl)cccc2Cl)c2nc(Cc3ccc(OCCO)cc3)[nH]c(=O)c12", "NOT MET"],
  ["O=C1Cc2c([nH]c3ccc(Br)cc23)-c2ccccc2N1", "NOT MET"],
  ["Nc1ncnc2c1cnn2-c1ccccc1", "MET"],
  ["O=C(O)/C=C/c1cc(Br)c(Br)c(Br)c1Br", "MET"],
  ["O=c1cc(N2CCOCC2)oc2c(-c3ccccc3)cccc12", "NOT MET"],
  ["O=C1Nc2ccc(Cl)cc2/C1=C/c1cc(Cl)c(O)c(Cl)c1", "MET"],
  ["O=C1NC(=O)C(c2cn(CCCn3ccnc3)c3ccccc23)=C1Nc1ccccc1", "NOT MET"],
  ["CCN(CC)CCNC(=O)c1c(C)[nH]c(/C=C2\\C(=O)Nc3ccc(Cl)cc32)c1C", "NOT MET"],
  ["NC(=O)Nc1sc(-c2ccc(F)cc2)cc1C(N)=O", "NOT MET"],
  ["O=C1NC(=O)c2c1c1c3ccccc3[nH]c1n1cncc21", "NOT MET"],
  ["COc1ccc(Cl)cc1NC(=O)Nc1cc(C)nc2ccccc12", "MET"],
  ["Nc1nc(Nc2ccc(S(N)(=O)=O)cc2)nn1C(=O)c1c(F)cccc1F", "NOT MET"],
  ["O=c1cc(N2CCOCC2)oc2c1ccc1ccccc12", "MET"],
  ["CC(C)(C)n1nc(Cc2cccc3ccccc23)c2c(N)ncnc21", "MET"],
  ["O=C(c1cc2cc(O)ccc2[nH]1)c1cc2cc(O)ccc2[nH]1", "NOT MET"],
  ["Nc1n[nH]c2nc3ccccc3nc12", "NOT MET"],
  ["CN(C)S(=O)(=O)c1ccc2c(c1)/C(=C/c1cc3c([nH]1)CCCC3)C(=O)N2", "MET"],
  ["Cn1c2ccccc2c2c3c(c4c5ccccc5n(CCC#N)c4c21)CNC3=O", "NOT MET"],
  ["CC(C)[C@H](CO)Nc1nc(Nc2cc(N)cc(Cl)c2)c2ncn(C(C)C)c2n1", "NOT MET"]
]}
